Test system: SK-MEL-2 melanoma
assay-procedure: NCI tumour cell line growth inhibition, 48 h
Below, each entry is listed alongside its reported TGI.
measured-metric: TGI

# molecule, assay-target, measured-metric, observed-result
measured = [
    ("CC/C=C\\C[C@@H](O)C/C=C1/C(=O)C=C[C@H]1C/C=C\\CCCC(=O)OC", "SK-MEL-2 melanoma", "TGI", "21.6 µM"),
    ("COC(=O)c1cc2c(cc1CC1Cc3cc4c(cc3C1=O)CCC4)CCC2 (stereo unspecified)", "SK-MEL-2 melanoma", "TGI", "> 100 µM"),
    ("C#CCNC(=O)c1cccc2c1cc(C)n2-c1nc2c(c(NCc3ccccc3)n1)CCCC2", "SK-MEL-2 melanoma", "TGI", "0.0627 µM"),
    ("CCCC1N2CCCCC2[C@@H]2c3[nH]c4ccccc4c3CCN12 (stereo partly specified)", "SK-MEL-2 melanoma", "TGI", "> 100 µM"),
    ("OC1(c2ccc(Cl)cc2)C(N2CCCC2)c2ccccc2C2=NCCN21 (stereo unspecified)", "SK-MEL-2 melanoma", "TGI", "45 µM"),
    ("O=c1cc(-c2ccccc2)oc2cc(OC/C(=N/O)c3ccccc3)ccc12", "SK-MEL-2 melanoma", "TGI", "> 50 µM"),
    ("COc1ccc2c(c1)[n+](=O)c(C(=O)C/C(=N/OCCCc1ccccc1)C(=O)NC13CC4CC(CC(C4)C1)C3)c(C)n2[O-]", "SK-MEL-2 melanoma", "TGI", "> 100 µM"),
    ("CN(C)/N=C(/CC(O)(C(F)(F)F)C(F)(F)F)c1ccc([N+](=O)[O-])cc1", "SK-MEL-2 melanoma", "TGI", "> 100 µM"),
    ("O=S(=O)(NC1=NCCN1C(=S)SN1CCn2c1nsc2=S)c1cccc(Cl)c1", "SK-MEL-2 melanoma", "TGI", "98.9 µM"),
    ("O=C1CSSCC(=O)Nc2ccccc2N1", "SK-MEL-2 melanoma", "TGI", "> 100 µM"),
    ("CC1CN1C(=O)NCCCCCCNC(=O)N1CC1C (stereo unspecified)", "SK-MEL-2 melanoma", "TGI", "> 100 µM"),
    ("COc1nc(N=P(c2ccccc2)(c2ccccc2)c2ccccc2)cc(=O)[nH]1", "SK-MEL-2 melanoma", "TGI", "> 100 µM"),
    ("COCCCNC(=O)C1C(=O)C(=O)N(CCCOC)C1=O (stereo unspecified)", "SK-MEL-2 melanoma", "TGI", "> 100 µM"),
    ("COc1ccccc1N(CN1C(=O)CCC1C(=O)O)C(C)=O (stereo unspecified)", "SK-MEL-2 melanoma", "TGI", "> 100 µM"),
    ("CCN(CCO)C(=O)C1(c2ccccc2)CCCCC1", "SK-MEL-2 melanoma", "TGI", "> 10 µM"),
    ("Nc1nc(I)nc2c1ncn2C1OC(COS(N)(=O)=O)C(O)C1O (stereo unspecified)", "SK-MEL-2 melanoma", "TGI", "0.0107 µM"),
    ("Cc1cccc(C(C)C)c1NC(=O)/C(Cc1c([N+](=O)[O-])cccc1[N+](=O)[O-])=N/NC(=O)CC#N", "SK-MEL-2 melanoma", "TGI", "> 100 µM"),
    ("CCOC(=O)N(NC(=O)NC(C)C)c1ccccc1", "SK-MEL-2 melanoma", "TGI", "> 100 µM"),
    ("O=S(=O)(O)C1=C2Sc3ccccc3N=C2c2ccccc2C1", "SK-MEL-2 melanoma", "TGI", "35.7 µM"),
    ("C/C(Cl)=N/OC(=O)Nc1ccc(S(N)(=O)=O)c(C)c1", "SK-MEL-2 melanoma", "TGI", "33.5 µM"),
    ("COc1cc2cc(Oc3ccc(NC(=O)Nc4ccc(Cl)c(C(F)(F)F)c4)cc3)c(C)nc2cc1OCCN1CCOCC1", "SK-MEL-2 melanoma", "TGI", "4.06 µM"),
]
